Quick reference for z-score among some compounds
# TEST: basal RPMI8226 viability, no added stimulus, profiling panel, cell-based, calcein-AM fluorescence, 48 h, PK04 Diversity Set (AID 1166);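 note: cells grown under basal conditions without added stimulus; test concentration not given here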
# RECORDED CONDITIONS: RPMI8226 myeloma viability, higher = more signal

COMPOUND: C=CCNC(=O)[C@H]1[C@@H]2C(=O)O[C@@H](c3ccccc3)[C@@H](c3ccccc3)N2[C@@H](c2ccc(O)cc2)[C@]12C(=O)Nc1ccc(C#CCC(C(=O)OC)C(=O)OC)cc12
z-score: -4.12
//
COMPOUND: CC(C)N1C(=O)[C@@]2(Cc3ccccc31)c1ccccc1C(=O)N(Cc1ccccc1C(F)(F)F)[C@H]2c1ccc(CO)cc1
z-score: -1.27
//
COMPOUND: COc1ccc([Si](C)(C)[C@@H]2[C@@H](CC(=O)N3Cc4ccccc4C[C@H]3CO)O[C@]3(C(=O)N(Cc4ccc(I)cc4)c4ccccc43)[C@H]2C)cc1
z-score: -0.588
//
COMPOUND: CN1C(=O)C2C(C1=O)C1C=C(CCCO)C2C(C2CC2)N1C (stereo not drawn)
z-score: 0.929
//
COMPOUND: Cc1c(NC(=O)/C(C#N)=C/C=C/c2ccc([N+](=O)[O-])cc2)c(=O)n(-c2ccccc2)n1C
z-score: -0.787
//
COMPOUND: C=C[C@@H](CO)NS(=O)(=O)c1ccc(Br)cc1
z-score: 1.05
//
COMPOUND: CCCCC(=C=CC[C@@H](O)c1ccc(OCCO)cc1)CCO
z-score: 0.796
//
COMPOUND: COCCCNC(=O)[C@@]1(Cc2ccccc2I)c2ccccc2C(=O)N(C2CCCCC2)[C@H]1c1ccc(CO)cc1
z-score: -0.0802

###

# TEST: small-molecule microarray binders of probe aWnt5a, primary screen, biochemical, biotinylated probe, 635/667 nm fluorescence (AID 1113);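 note: score merges 667 nm fluorescence intensity with signal-to-noise per printed feature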
# RECORDED CONDITIONS: higher = more signal
Label rule, in plain words: composite z-score of -0.1 and up is 1, under -0.1 is 0.

MOLECULE: CCCCC(=C=CC[C@H](O)c1ccccc1OCCO)CCO
CLASS NAME: 1
--
MOLECULE: COCCCNC(=O)[C@@]1(Cc2ccccc2I)c2ccccc2C(=O)N(C2CCCCC2)[C@H]1c1ccc(CO)cc1
CLASS NAME: 1
--
MOLECULE: CCCCN1CC=CC23O[C@@H]4C=CCCOC(=O)C4[C@H]2C(=O)N(CCO)[C@@H]3C1=O (stereo partly drawn)
CLASS NAME: 0
--
MOLECULE: C=C(C)C1CN([C@H](CO)c2ccccc2)C(=O)/C1=C\c1ccccc1 (stereo partly drawn)
CLASS NAME: 0
--
MOLECULE: COC(=O)[C@@]1(Cc2ccc(F)cc2)[C@H]2c3cc(C(=O)N4CCCC4)n(C[C@H](O)CO)c3C[C@H]2CN1C(=O)c1ccccc1
CLASS NAME: 1
--
MOLECULE: COC(=O)[C@H](Cc1ccccc1)N1CC(C)(OC)O[C@@H](Cc2ccccc2)[C@H]1/C=C/C1CC1 (stereo partly drawn)
CLASS NAME: 1
--
MOLECULE: O=C1OCC=C[C@H]2OC34C=CCN(Cn5nnc6ccccc65)C(=O)[C@H]3N(CCO)C(=O)[C@@H]4[C@@H]12 (stereo partly drawn)
CLASS NAME: 0
